Test system: MDA-MB-435
Assay: NCI tumour cell line growth inhibition, 48 h
Active and inactive are the calls of the source. No stated cut-off is given here; in the data, active = GI50 up to about 1.1 µM and inactive = higher.
Please go through the items and note down their GI50.

Sample answers from the record:
Ask: Fill in the blank: the reported GI50 of CN1CCC2(CC1)C(=O)N(NC(N)=O)C(=O)C2c1ccccc1 (stereo unspecified) is ____.
Result: > 100 µM (inactive)

Ask: Would you mind telling me what GI50 value was observed for c1ccc2c(c1)ccc1nc(-c3ccc4c(c3)OCO4)c3c(c12)CCCC3 ?
Result: 27.5 µM (inactive)

Ask: If you can, please state the reported GI50 value of Clc1ccc(Cc2nc3cc(Cl)ccc3o2)cc1 .
Result: 28.7 µM (inactive)

Ask: Could you share which GI50 value was measured for O=C1CSC(c2cccs2)N1c1nc2cc3sc(N4C(=O)CSC4c4cccs4)nc3cc2s1 (stereo unspecified) ?
Result: > 50 µM (inactive)

Ask: What does the data say about its GI50? Entry: Nc1nccc(NCC2(CO)CC(OCc3ccccc3)C2)n1 (stereo unspecified)
Result: > 100 µM (inactive)

Could you now look at the following molecule, please?
Ask: Request the reported GI50 associated with N#CC(C(=O)c1cccnc1Cl)c1nc2cc(C(F)(F)F)ccc2s1 (stereo unspecified)
Result: 47.2 µM (inactive)
